Recorded values, source PubChem BioAssay (EPA / NIEHS).

Biological target: Estrogen receptor (Homo sapiens) (UniProt P03372)
Sequence (P03372 whole entry, looked up): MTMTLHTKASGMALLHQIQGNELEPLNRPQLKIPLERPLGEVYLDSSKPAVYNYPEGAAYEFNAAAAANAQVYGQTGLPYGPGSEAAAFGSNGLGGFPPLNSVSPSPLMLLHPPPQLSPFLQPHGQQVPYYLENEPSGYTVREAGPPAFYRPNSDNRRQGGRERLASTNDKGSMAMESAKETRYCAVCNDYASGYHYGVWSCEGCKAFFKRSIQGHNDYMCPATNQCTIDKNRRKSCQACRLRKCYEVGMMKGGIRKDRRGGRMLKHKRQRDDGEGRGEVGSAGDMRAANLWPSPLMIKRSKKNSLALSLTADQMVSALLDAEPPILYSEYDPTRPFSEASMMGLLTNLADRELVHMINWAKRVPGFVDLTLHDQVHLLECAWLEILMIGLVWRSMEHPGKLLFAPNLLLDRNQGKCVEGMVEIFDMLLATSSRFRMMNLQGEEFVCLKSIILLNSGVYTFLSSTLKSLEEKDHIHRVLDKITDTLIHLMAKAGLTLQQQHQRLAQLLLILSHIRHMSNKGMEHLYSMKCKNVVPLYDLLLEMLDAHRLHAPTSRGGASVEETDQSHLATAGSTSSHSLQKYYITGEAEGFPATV
Assay: OT_ERa_GFPERaERE_0480: Odyssey Thera (OT) 8-hour HeLa Transcription Induction Assay for Estrogen Receptor (AID 2283381)
Protocol: OT_ERa_GFPERaERE_0480 is a cell-based, single-readout assay that uses HeLa, a human cervix cell line, with measurements taken at 8 hours after chemical dosing in a 384-well plate.OT_ERa_GFPERaERE_0480 is one of one assay component(s) measured or calculated from the OT_ERa_GFPERaERE_0480 assay. […] This assay endpoint, OT_ERa_EREGFP_0480, was analyzed in the positive analysis fitting direction relative to DMSO as the negative control and baseline of activity. […]
Activity calls are given as the source filed them. The calls were made as follows: active = hit-call score of the fitted dose curve at least 0.9, where 1 is the maximum; inactive = score below 0.9.
Classes used: active, inactive

>>> discrete_label("CCCCOCCO")
"inactive"
>>> discrete_label("CCCCC(CC)COC(=O)CCCCC(=O)OCc1ccccc1 (centres undefined)")
"inactive"
>>> discrete_label("Nc1cccc2c(N)cccc12")
"inactive"
>>> discrete_label("C[C@@H]1C[C@H]2[C@@H]3CCC4=CC(=O)C=C[C@]4(C)[C@@]3(F)[C@@H](O)C[C@]2(C)[C@@]1(O)C(=O)COP(=O)(O)O")
"inactive"
>>> discrete_label("Oc1cccc(O)c1")
"active"
>>> discrete_label("N#C[C@@H]1CC(F)(F)CN1C(=O)CNC1CC2CCC(C1)N2c1ncccn1 (some centres undefined)")
"inactive"
>>> discrete_label("Cc1cc(C)c(O)c(C)c1")
"inactive"
>>> discrete_label("O=[N+]([O-])c1ccc(O)cc1")
"inactive"
>>> discrete_label("CC(=O)CC(C)(C)O")
"inactive"
>>> discrete_label("COCC(C)OCC(C)O (centres undefined)")
"inactive"
>>> discrete_label("CCCCCCCCCCCCN1CCCC1=O")
"inactive"
>>> discrete_label("CCc1ccc(CCOc2ccc(CC3SC(=O)NC3=O)cc2)nc1 (centres undefined)")
"inactive"
>>> discrete_label("OC1CCC(C2CCCCC2)CC1 (centres undefined)")
"inactive"
>>> discrete_label("CN(C)C=O")
"inactive"

* * *

Read-out: Collagen III, COL3A1 (gene 1281)
Experiment: BSK_hDFCGF_CollagenIII: BioMAP Diversity Plus: hDFCGF Assay for Collagen III Biomarker Activity (AID 2283056)
Settings: primary human foreskin fibroblasts; actives raise or lower the signal
The source made the active and inactive calls. How the source made its calls: active means hit-call score of the fitted dose curve at least 0.9, where 1 is the maximum; inactive means score below 0.9.
Classes used: active, inactive

>>> discrete_label("CCC(=C(c1ccc(O)cc1)c1ccc(OCCN(C)C)cc1)c1ccccc1")
"active"
>>> discrete_label("CCCCCCCCC(=O)O")
"inactive"
>>> discrete_label("O=C(OCCOCCOC(=O)c1ccccc1)c1ccccc1")
"inactive"
>>> discrete_label("c1ccc2c(c1)Cc1ccccc1-2")
"inactive"
>>> discrete_label("c1ccc2c(c1)ccc1ccccc12")
"inactive"
>>> discrete_label("O=C(O)c1ccccc1C(c1ccc(O)cc1)c1ccc(O)cc1")
"inactive"
>>> discrete_label("CC(C)(C)CC(C)(C)c1ccc(O)c(-n2nc3ccccc3n2)c1")
"inactive"

* * *

Molecular target: Glucocorticoid receptor (Homo sapiens) (UniProt P04150)
Sequence (P04150 whole entry, looked up): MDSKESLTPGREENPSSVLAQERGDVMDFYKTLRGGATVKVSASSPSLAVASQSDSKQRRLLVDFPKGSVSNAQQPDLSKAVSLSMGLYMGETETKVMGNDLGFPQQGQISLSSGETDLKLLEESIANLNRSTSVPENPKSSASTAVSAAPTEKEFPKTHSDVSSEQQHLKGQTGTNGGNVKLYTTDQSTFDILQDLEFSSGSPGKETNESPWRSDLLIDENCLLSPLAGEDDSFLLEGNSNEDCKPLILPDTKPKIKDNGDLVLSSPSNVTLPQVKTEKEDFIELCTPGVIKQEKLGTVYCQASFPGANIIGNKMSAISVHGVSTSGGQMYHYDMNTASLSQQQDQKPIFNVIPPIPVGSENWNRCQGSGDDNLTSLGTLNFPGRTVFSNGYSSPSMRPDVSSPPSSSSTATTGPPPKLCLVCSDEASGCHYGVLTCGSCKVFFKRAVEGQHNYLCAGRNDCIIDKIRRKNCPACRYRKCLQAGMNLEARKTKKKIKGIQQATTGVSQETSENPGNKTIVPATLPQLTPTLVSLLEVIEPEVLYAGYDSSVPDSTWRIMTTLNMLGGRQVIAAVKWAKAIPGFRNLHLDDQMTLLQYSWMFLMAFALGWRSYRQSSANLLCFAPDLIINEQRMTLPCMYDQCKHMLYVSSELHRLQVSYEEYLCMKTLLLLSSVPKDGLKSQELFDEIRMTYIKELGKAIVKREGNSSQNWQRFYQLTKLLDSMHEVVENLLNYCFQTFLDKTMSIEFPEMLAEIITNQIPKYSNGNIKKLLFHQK
Assay: NVS_NR_hGR: NovaScreen (NVS) Nuclear Receptor Binding Assay for human Glucocorticoid Receptor (GR) (AID 2283363)
Results filed as inconclusive are left out. Calls of active or inactive are those of the source. The calls were made as follows: active = hit-call score of the fitted dose curve at least 0.9, where 1 is the maximum; inconclusive = response in the unintended direction; inactive = score below 0.9.
Classes used: active, inactive

>>> discrete_label("CC#C[C@]1(O)CC[C@H]2[C@@H]3CCC4=CC(=O)CCC4=C3[C@@H](c3ccc(N(C)C)cc3)C[C@@]21C")
"inactive"
>>> discrete_label("CC(=O)NC1(c2cccc(F)c2)CCN(CC[C@@]2(c3ccc(Cl)c(Cl)c3)CN(c3ccccc3)C(=O)CO2)CC1")
"inactive"
>>> discrete_label("CC[C@H](C)[C@@H](C(=O)O)n1sc2ccccc2c1=O")
"inactive"
>>> discrete_label("Oc1cc2ccccc2c2ccccc12")
"active"
>>> discrete_label("CC(C)CCCCCCOC(=O)CCCCC(=O)OCCCCCCC(C)C")
"inactive"
>>> discrete_label("Nc1cccc2c(N)cccc12")
"active"
>>> discrete_label("C[C@@H]1C[C@H]2[C@@H]3CCC4=CC(=O)C=C[C@]4(C)[C@@]3(F)[C@@H](O)C[C@]2(C)[C@@]1(O)C(=O)COP(=O)(O)O")
"inactive"
>>> discrete_label("O=C1OC2(c3ccccc31)c1cc(Br)c(O)c(Br)c1Oc1c2cc(Br)c(O)c1Br")
"active"
>>> discrete_label("CC(O)CO (stereo unspecified)")
"inactive"
>>> discrete_label("O=C(O)c1ccccc1C(c1ccc(O)cc1)c1ccc(O)cc1")
"active"
>>> discrete_label("NC(=O)N1C(=O)C(C(=O)c2cc(Cl)cs2)c2cc(F)c(Cl)cc21 (stereo unspecified)")
"active"

* * *

Read-out: Intercellular Adhesion Molecule 1 (ICAM1), ICAM1 (gene 3383)
Assay: BSK_3C_ICAM1: BioMAP Diversity Plus: 3C Assay for Intercellular Adhesion Molecule 1 (ICAM1) Biomarker Activity (AID 2283003)
Conditions: primary human endothelial cells (HUVEC); actives raise or lower the signal
Active and inactive are the calls of the source. How the source made its calls: active means hit-call score of the fitted dose curve at least 0.9, where 1 is the maximum; inactive means score below 0.9.
Outcomes: 1 (active), -1 (inactive)

>>> discrete_label("Cc1cc(C)c(O)c(C)c1")
-1
>>> discrete_label("CCCCCCCCCCCCCC[N+](C)(C)C")
1
>>> discrete_label("CCCCCCCCCCCCc1ccccc1S(=O)(=O)O")
-1
>>> discrete_label("OC1CCC(C2CCCCC2)CC1 (configuration not stated)")
-1
>>> discrete_label("NC(=O)N1C(=O)C(C(=O)c2cc(Cl)cs2)c2cc(F)c(Cl)cc21 (configuration not stated)")
-1
>>> discrete_label("OC1CCCCC1")
-1
>>> discrete_label("C#C[C@]1(O)CC[C@H]2[C@@H]3CCC4=CC(=O)CC[C@@H]4[C@H]3CC[C@@]21C")
-1

* * *

Read-out: CD40, CD40 (gene 958)
Test: BSK_LPS_CD40: BioMAP Diversity Plus: LPS Assay for CD40 Biomarker Activity (AID 2283076)
Details: primary human HUVEC with PBMC; actives raise or lower the signal
The source made the active and inactive calls. The calls were made as follows: active = hit-call score of the fitted dose curve at least 0.9, where 1 is the maximum; inactive = score below 0.9.
Possible outcomes: Y = active, N = inactive

>>> discrete_label("C#C[C@]1(O)CC[C@H]2[C@@H]3CCC4=CC(=O)CC[C@@H]4[C@H]3CC[C@@]21C")
"N"
>>> discrete_label("CCCCC(CC)COC(=O)CCCCC(=O)OCC(CC)CCCC (stereo unspecified)")
"N"
>>> discrete_label("ClC1=C(Cl)C(Cl)(Cl)C(Cl)=C1Cl")
"Y"
>>> discrete_label("OC1CCCCC1")
"N"
>>> discrete_label("CC(=O)CC(C)(C)O")
"N"
>>> discrete_label("CN1CCC[C@H]1c1cccnc1")
"N"
>>> discrete_label("CCCCC(CC)COC(=O)CCCCC(=O)OCc1ccccc1 (stereo unspecified)")
"N"
>>> discrete_label("Oc1cc2ccccc2c2ccccc12")
"Y"
>>> discrete_label("NC(=O)N(O)[C@@H]1C=C[C@H](Oc2cccc(Oc3ccc(F)cc3)c2)C1")
"N"
>>> discrete_label("c1ccc2c(c1)ccc1ccccc12")
"N"
>>> discrete_label("CC(C)(C)c1cc(C(C)(C)C)c(O)c(C(C)(C)C)c1")
"N"

* * *

Assay: ATG_M_61_CIS: Attagene CIS-FACTORIAL HepG2 Assay for M61 Transcription Factor (Internal Marker) (AID 2282937)
Settings: HepG2 Attagene CIS-FACTORIAL M61 internal marker reporter; actives raise or lower the signal
Calls of active or inactive are those of the source. How the source made its calls: active means hit-call score of the fitted dose curve at least 0.9, where 1 is the maximum; inactive means score below 0.9.
quantity: outcome

>>> recorded_value("CC(C)(C)c1ccc(O)c(C(C)(C)C)c1")
"inactive"
>>> recorded_value("O=C(/C=C/c1ccc(O)cc1)CC(=O)/C=C/c1ccc(O)cc1")
"inactive"
>>> recorded_value("CCCCCCC(=O)O")
"inactive"
>>> recorded_value("Cc1oc(-c2ccccc2)nc1CCOc1ccc(C[C@H](Nc2ccccc2C(=O)c2ccccc2)C(=O)O)cc1")
"inactive"
>>> recorded_value("N#C[C@@H]1CC(F)(F)CN1C(=O)CNC1CC2CCC(C1)N2c1ncccn1 (stereo partly specified)")
"inactive"
>>> recorded_value("CCCOc1sc(C(=O)N2CCC(c3cc(CN)ccc3F)CC2)c(C)c1Br")
"inactive"
>>> recorded_value("CCOC(=O)CC(O)(CC(=O)OCC)C(=O)OCC")
"inactive"
>>> recorded_value("CC#C[C@]1(O)CC[C@H]2[C@@H]3CCC4=CC(=O)CCC4=C3[C@@H](c3ccc(N(C)C)cc3)C[C@@]21C")
"inactive"
>>> recorded_value("FC(F)(I)C(F)(F)C(F)(F)C(F)(F)C(F)(F)C(F)(F)I")
"inactive"
>>> recorded_value("CCCCCCCCC(=O)O")
"inactive"
>>> recorded_value("CC(C)(C)c1cccc(C(C)(C)C)c1O")
"inactive"
